Provenance of the data: PubChem BioAssay

Each entry below carries its reported z-score.
- ASSAY REMARKS: inhibitors of hydroxyurea-induced Chk1 phosphorylation, primary screen, imaging, HeLa, phospho-Chk1 antibody, percent positive cells (AID 1186)
- SETTINGS: hydroxyurea-induced phospho-Chk1 immunofluorescence imaging, higher = more signal
ENDPOINT LABEL: z-score

[[record]]
compound_structure = "C#CCN(C/C=C/c1ccccc1)[C@H](CO[Si](C)(C)C(C)(C)C)c1ccccc1"
reported_measurement = 0.229

[[record]]
compound_structure = "C=C(COC)C(=O)CC[C@@H](OC(C)=O)c1ccc(OCCO)cc1"
reported_measurement = 0.0887

[[record]]
compound_structure = "O=C1O[C@H](c2ccccc2)[C@H](c2ccccc2)N2[C@H]1[C@@H](C(=O)N1CCN(c3ncccn3)CC1)[C@]1(C(=O)Nc3ccccc31)[C@H]2c1ccc(O)cc1"
reported_measurement = 0.746

[[record]]
compound_structure = "CO[C@H]1O[C@H](CO)[C@@H](OC(=O)Nc2ccc(C(F)(F)F)cc2)[C@H](OC(=O)Nc2ccccc2-c2ccccc2)[C@@H]1OC(=O)Nc1ccccc1-c1ccccc1"
reported_measurement = 0.206

[[record]]
compound_structure = "C=CCOC(=O)[C@H]1[C@@H]2C(=O)O[C@@H](c3ccccc3)[C@@H](c3ccccc3)N2[C@@H](c2ccc(OCCOC(=O)[C@H]3C[C@H]4C(=O)NCC(=O)N4[C@H]3c3ccc(O)cc3)cc2)[C@]12C(=O)Nc1ccc(I)cc12"
reported_measurement = -1.06

[[record]]
compound_structure = "COC(=O)[C@@H]1N=C(c2ccc(OCCCO)cc2)O[C@@H]1c1ccccc1CN=[N+]=[N-]"
reported_measurement = -0.196

[[record]]
compound_structure = "C=CC[C@]1(C(=O)N(C)C)COC(c2ccc(OCCCO)cc2)=N1"
reported_measurement = -0.491


====

- ASSAY REMARKS: binders of probe aFGF2 on microarray, primary screen, stem cell growth factor project, biochemical, small-molecule microarray, fluorescence 635/667 (AID 1067);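 also: measures binding of biotinylated aFGF2 protein to printed compounds on slides; z-score merges feature fluorescence and signal-to-noise across triplicate slides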
- SETTINGS: higher = more signal
ENDPOINT LABEL: composite z-score

[[record]]
compound = "CN(C)CCCNC(=O)[C@@]1(Cc2ccccc2I)c2ccccc2C(=O)N(Cc2ccccc2)[C@H]1c1ccc(CO)cc1"
reported_measurement = 0.106

[[record]]
compound = "COC(=O)[C@@]1(CCS(=O)(=O)c2ccccc2)N=C(c2ccc(OCCCO)cc2)O[C@H]1c1ccccc1N=[N+]=[N-]"
reported_measurement = -0.051

[[record]]
compound = "COCCOC(=O)N1C(=O)[C@@]2(c3cc(C#CC4=CCCCC4)ccc31)[C@H](C(=O)N1CCN(c3ncccn3)CC1)[C@H]1C(=O)O[C@H](c3ccccc3)[C@H](c3ccccc3)N1[C@@H]2c1ccccc1OCCO"
reported_measurement = 0.0346

[[record]]
compound = "COc1ccc(C#Cc2ccc3c(c2)[C@]2(C(=O)N3)[C@H](C(=O)Nc3nc4ccccc4s3)[C@H]3C(=O)O[C@H](c4ccccc4)[C@H](c4ccccc4)N3[C@@H]2c2ccc(OCCO)cc2)cc1"
reported_measurement = 0.0015

[[record]]
compound = "C=CCC(OC(C)=O)[C@@H]1[C@@H](N(Cc2ccc(-c3cccc(C(F)(F)F)c3)o2)C(=O)Cc2ccc(F)cc2)c2cc(OCCCO)ccc2N1C(=O)c1ccc2ccccc2c1 (stereo not given in full)"
reported_measurement = -0.133

[[record]]
compound = "O=C1OCCC/C=C\\[C@H]2OC34C=CCN(Cc5ccccc5)C(=O)[C@H]3N(CCCCCO)C(=O)[C@@H]4C12 (stereo not given in full)"
reported_measurement = -0.147

[[record]]
compound = "CC#CCO[Si](C#CCCCCCC)(C(C)C)C(C)C"
reported_measurement = -0.24

[[record]]
compound = "COC(=O)[C@@]1(Cc2ccccc2)[C@@H]2[C@@H](CC(=O)[C@H]2CC(=O)C(=O)N(C)C)CN1C(=O)c1ccccc1"
reported_measurement = -0.169

[[record]]
compound = "CN1C(=O)C2C(C1=O)C1C=C(c3ccc(CO)cc3)C2C(c2cccs2)N1C (stereo not given)"
reported_measurement = -0.0578

[[record]]
compound = "COc1ccc(CCNC(=O)[C@@]2(Sc3ccc(C)cc3)CC(=O)N(Cc3cc(C(F)(F)F)cc(C(F)(F)F)c3)[C@@H]2c2ccc(CO)cc2)cc1"
reported_measurement = -0.188

[[record]]
compound = "Cc1ccc(S[C@]2(C(=O)NCCN3CCOCC3)CC(=O)N(C3CCCCC3)[C@@H]2c2ccc(CO)cc2I)cc1"
reported_measurement = -0.0687

[[record]]
compound = "COC(=O)[C@@]1(Cc2ccc(F)cc2)[C@H]2c3cc(C(=O)N(C)C)n(CCn4cc([N+](=O)[O-])nc4C)c3C[C@H]2CN1C(=O)c1ccccc1"
reported_measurement = 0.22

[[record]]
compound = "COC(=O)[C@@]1(Cc2ccc(F)cc2)[C@H]2c3cc(C(=O)N4CCCC4)n(CCO)c3C[C@H]2CN1C(=O)c1ccccc1"
reported_measurement = 0.153

[[record]]
compound = "O=C1c2ccccc2[C@](Cc2ccccc2I)(C(=O)O)[C@H](c2ccc(CO)cc2)N1Cc1ccccc1"
reported_measurement = -0.101

[[record]]
compound = "COc1ccc(C(O)C2C=CC3C(=O)N(C)C(=O)C3N2Nc2ccc([N+](=O)[O-])cc2[N+](=O)[O-])cc1OCc1ccccc1 (stereo not given)"
reported_measurement = 0.258

[[record]]
compound = "CN(C)CCCCNC(=O)[C@H]1C[C@H]2C(=O)NCC(=O)N2[C@H]1c1cccc(OCCO)c1"
reported_measurement = -0.155

[[record]]
compound = "C=CC[C@@]1(C(=O)N(C)C)N=C(c2ccc(OCCCO)cc2)O[C@@H]1c1ccccc1"
reported_measurement = 0.0917

[[record]]
compound = "Cc1ccc(S[C@]2(C(=O)NC3CC3)CC(=O)N(Cc3cc(C(F)(F)F)cc(C(F)(F)F)c3)[C@@H]2c2ccc(CO)cc2I)cc1"
reported_measurement = 0.21

[[record]]
compound = "COCCOC(=O)N1C(=O)[C@@]2(c3cc(C#CCCO)ccc31)[C@H](c1ccc(O)cc1)N1[C@H](c3ccccc3)[C@H](c3ccccc3)OC(=O)[C@H]1[C@@H]2C(=O)N1CCc2cc(OC)c(OC)cc2C1"
reported_measurement = -0.0004

[[record]]
compound = "CCOC(=O)C1=CC[C@@H](c2ccccc2)N(S(=O)(=O)C[Si](C)(C)C)[C@H]1c1ccccc1"
reported_measurement = -0.0181

[[record]]
compound = "CCCCNC(=O)c1ccc(C#C[Si](C)(C)C)c(OC(C)=O)c1"
reported_measurement = -0.0718

[[record]]
compound = "CC(C)C[C@H]1NC(=O)[C@@H](C)NC(=O)[C@@]23C(=O)N[C@@H](Cc4ccccc4)C2[C@H](C)[C@@]2(C)O[C@H]2C3/C=C/C/C=C\\CNC1=O (stereo not given in full)"
reported_measurement = -0.185

[[record]]
compound = "C=C(/C(=C/C[C@@H](OC(C)=O)c1ccccc1OCCO)c1cc(C(=O)OC)ccc1OC)C(C)C"
reported_measurement = -0.049

[[record]]
compound = "COc1ccc([Si](C)(C)[C@@H]2[C@@H](CC(=O)N(CCO)Cc3ccccc3)O[C@]3(C(=O)N(Cc4ccc(N5CCC5=O)cc4)c4ccccc43)[C@H]2C)cc1"
reported_measurement = -0.0226

[[record]]
compound = "CN(C)C(=O)[C@@]1(CCS(=O)(=O)c2ccccc2)N=C(c2ccc(OCCCO)cc2)O[C@H]1c1ccccc1N=[N+]=[N-]"
reported_measurement = 0.167


====

- ASSAY REMARKS: S. cerevisiae growth modulation with rapamycin, primary screen, strain BY4716, OD600, 96 h (AID 1091); also: test concentration not given here
- SETTINGS: higher = more signal, called active from +8 up or from −8 down
ENDPOINT LABEL: z-score

[[record]]
molecule = "COC(=O)Cn1c(C(=O)N(C)C)cc2c1C[C@H]1CN(C(=O)c3ccccc3)[C@@](Cc3ccc(OC)cc3)(C(=O)OC)[C@@H]21"
endpoint_label = "z-score"
reported_measurement = 0.493

[[record]]
molecule = "C=CCC(OC(C)=O)[C@@H]1[C@@H](N(Cc2cc3ccccc3o2)C(=O)c2ccc(-c3ccccc3)cc2)c2cc(OCCCO)ccc2N1C(=O)c1ccc2ccccc2n1 (stereo not given in full)"
endpoint_label = "z-score"
reported_measurement = 1.16

[[record]]
molecule = "COc1ccccc1CN1C(=O)c2ccccc2[C@@H](C(=O)NCCCN(C)C)[C@@H]1c1ccc(CO)cc1"
endpoint_label = "z-score"
reported_measurement = -1.63

[[record]]
molecule = "COCCCNC(=O)[C@@]1(Sc2ccc(C)cc2)CC(=O)N(C2CCCCC2)[C@@H]1c1ccc(CO)cc1I"
endpoint_label = "z-score"
reported_measurement = 0.0267

[[record]]
molecule = "COC(=O)[C@@]1(Cc2ccccc2CN=[N+]=[N-])COC(c2ccc(OCCCO)cc2)=N1"
endpoint_label = "z-score"
reported_measurement = -1.9

[[record]]
molecule = "COC(=O)[C@@]1(Cc2ccc(OC)cc2)[C@H]2c3cc(C(=O)N4CCCC4)n(CCc4ccc(OC)c(Br)c4)c3C[C@H]2CN1C(=O)c1ccccc1"
endpoint_label = "z-score"
reported_measurement = -0.751

[[record]]
molecule = "COc1cc2c(cc1O)C(c1ccc(CN3CCCC3)cc1)N(Cc1cccc(OC(F)(F)F)c1)CC2 (stereo not given)"
endpoint_label = "z-score"
reported_measurement = -3.95

[[record]]
molecule = "CC(C)(C)N1CC=CC23O[C@@H]4/C=C\\CCCOC(=O)C4[C@H]2C(=O)N(CCCCCCO)[C@@H]3C1=O (stereo not given in full)"
endpoint_label = "z-score"
reported_measurement = -0.624

[[record]]
molecule = "CCCCN1CC=CC23O[C@@H]4C=CCOC(=O)[C@@H]4[C@H]2C(=O)N(CCO)[C@@H]3C1=O (stereo not given in full)"
endpoint_label = "z-score"
reported_measurement = -0.179

[[record]]
molecule = "CN1C(=O)C2C(C1=O)C1C=C(c3ccc(CO)cc3)C2C(c2cccs2)N1C (stereo not given)"
endpoint_label = "z-score"
reported_measurement = 1.33

[[record]]
molecule = "C=C(COC)/C(=C/C[C@@H](OC(C)=O)c1ccccc1OCCO)c1cc(C(=O)OC)ccc1OC"
endpoint_label = "z-score"
reported_measurement = -0.167

[[record]]
molecule = "O=C1NC(=O)C2C1C=CC(C(O)c1cccc(O)c1)N2Nc1ccc(Cl)cc1Cl (stereo not given)"
endpoint_label = "z-score"
reported_measurement = 0.668

[[record]]
molecule = "CO[C@H]1O[C@H](CO)[C@@H](OC(=O)Nc2ccccc2)[C@@H]2OC(=O)[C@H](Cc3ccccc3)C/C=C/C[C@@H](Cc3ccccc3)C(=O)O[C@@H]12"
endpoint_label = "z-score"
reported_measurement = 1.9

[[record]]
molecule = "CC#CCO[Si](C#CCCCCCC)(C(C)C)C(C)C"
endpoint_label = "z-score"
reported_measurement = -1.61

[[record]]
molecule = "COCCOC(=O)N1C(=O)[C@@]2(c3cc(C#CC4=CCCCC4)ccc31)[C@H](C(=O)N1CCc3cc(OC)c(OC)cc3C1)[C@H]1C(=O)O[C@H](c3ccccc3)[C@H](c3ccccc3)N1[C@@H]2c1ccc(O)cc1"
endpoint_label = "z-score"
reported_measurement = 2.7

